assay: qHTS for Inhibitors of Plasmodium falciparum (HB3) proliferation (AID 504318); also: nearly all actives have a fitted effect of over 60% in size; conditions: P. falciparum HB3 in erythrocytes, SYBR Green DNA, 72 h; series mostly up to 7.21 µM
Inconclusive results are not listed. The source made the active and inactive calls. Calls follow the shape of the dose curve; as a rule, active = well fitted inhibition curve with a large enough effect; inconclusive = small, poorly fitted or top-dose-only effect; inactive = flat fitted curve, though single readings scatter.
Reply using exactly one outcome from T for active, F for inactive

Illustrative cases are given below, each with its answer.
>  <molecule>
COCCN1C(=O)N[C@@H](c2cccc(F)c2)C(C(=O)OC)=C1C

>  <className>
F

$$$$
>  <molecule>
C=CCN1c2ccccc2[C@]23C[C@@H](C(=O)OC)N(C(C)=O)C2=NC(C(=O)OC)=C(C(=O)OC)[C@H]13

>  <className>
F

$$$$
>  <molecule>
COC(=O)[C@@H](NC(=O)N1CCc2nc(-c3ccccc3)c3c(c2C1)CO[C@@H](C)C3)C(C)C

>  <className>
F

$$$$
>  <molecule>
CC(C)Nc1oc(-c2ccccc2)nc1C=Cc1ccccc1

>  <className>
T

$$$$
>  <molecule>
COC(=O)C1=C(C(=O)OC)[C@@H]2Nc3ccccc3[C@@]23C[C@@H](C(=O)OC)N(C(=O)c2ccc(Br)cc2)C3=N1

>  <className>
F

$$$$

In: GET /call?item= COC(=O)C1=C(C(=O)OC)[C@@H]2Nc3ccccc3[C@@]23C[C@@H](C(=O)OC)N=C3N1 returns the recorded outcome of this test.
Out: F

In: GET /call?item= COCCN1C=C2C(=O)C(C)(OC(=O)CCc3ccccc3)C(=O)C=C2C=C1c1ccc(C#N)cc1 (stereo not drawn) returns the recorded outcome of this test.
Out: F

In: GET /call?item= CC(C)CN1C=C2C(=O)C(C)(OC(=O)CCc3ccccc3)C(=O)C=C2C=C1c1ccc(C#N)cc1 (stereo not drawn) returns the recorded outcome of this test.
Out: F

In: GET /call?item= COc1ccc2c(c1)O[C@@H](c1cccc(C(F)(F)F)c1)[C@H](OC(=O)N[C@H]1CCCc3ccccc31)C2=O returns the recorded outcome of this test.
Out: F

In: GET /call?item= COc1ccc([C@]23Cc4cc(OC)c(OC)cc4[C@H](O2)c2c(c4ccccc4oc2=O)O3)cc1 returns the recorded outcome of this test.
Out: F

In: GET /call?item= COC(=O)N1CCc2cc(OC)c(OC)cc2C1Cc1ccc(OC)cc1 (stereo not drawn) returns the recorded outcome of this test.
Out: F

In: GET /call?item= COC(=O)CCCC1=CC2=CC(=O)C(C)(OC(=O)CCc3ccccc3)C(=O)C2=CO1 (stereo not drawn) returns the recorded outcome of this test.
Out: F

In: GET /call?item= COC(=O)[C@@H]1[C@@H](C)N(CCc2cc(OC)c(OC)c(OC)c2)C(=O)N[C@H]1c1ccccc1 returns the recorded outcome of this test.
Out: F

In: GET /call?item= C[C@H]1Cc2c(COc3ccccc3)nc3c(c2CO1)CN(S(=O)(=O)c1ccc(Cl)c2nonc12)CC3 returns the recorded outcome of this test.
Out: F

In: GET /call?item= COC(=O)N1C(C)=Cc2ccccc2C1C/C(C)=C/C(C)=O (stereo not drawn) returns the recorded outcome of this test.
Out: F

In: GET /call?item= COc1cccc([C@@H]2Oc3ccc(Br)cc3[C@H](O)[C@@H]2O)c1 returns the recorded outcome of this test.
Out: F

In: GET /call?item= COC(=O)[C@@H]1[C@@H](C)N(Cc2ccccc2)C(=O)N[C@H]1c1cccc(C(F)(F)F)c1 returns the recorded outcome of this test.
Out: F
